# target: Bcl-2-like protein 10 [11-204] (Homo sapiens, UniProt Q9HD36)
# Construct: 11-204
# Sequence (Q9HD36 11-204): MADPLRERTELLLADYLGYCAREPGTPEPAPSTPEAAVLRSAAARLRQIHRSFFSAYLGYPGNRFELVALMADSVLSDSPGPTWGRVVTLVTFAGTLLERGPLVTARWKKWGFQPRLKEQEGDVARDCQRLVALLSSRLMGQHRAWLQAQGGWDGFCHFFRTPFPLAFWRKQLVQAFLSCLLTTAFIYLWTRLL
# test_protocol: Bcl-B Bim peptide interaction hit potency – biochemical, dose response, multiplexed HTS hits, confirmation (AID 2077)
measured_parameter: EC50 (µM)
Write it as a number; the unit µM goes unstated.

Answered cases to consult:
molecule="O=C1NC(=O)C2(Cc3c(nc4ccccn4c3=O)N3CCCCCC32)C(=O)N1Cc1ccccc1 (centres undefined) [MLS000083668]" unit_of_measure=µM endpoint_value=6.4
molecule=O=C1C(=Cc2ccco2)NC(=S)N1c1ccccc1 unit_of_measure=µM endpoint_value=2.9
molecule=CCN(CC)c1ccc(NC(=O)c2ccccc2Br)cc1S(=O)(=O)Nc1ccccc1OC unit_of_measure=µM endpoint_value=8.66

Moving on to another molecule below.
Q) Lab note: need EC50 for `COc1ccc(N2C(=O)C(Cl)=C(Oc3cccc(OC)c3)C2=O)cc1` on Bcl-2-like protein 10 [11-204] (Homo sapiens, UniProt Q9HD36), anyone have it?
A) 0.61
